molecular target: Neuronal acetylcholine receptor; alpha4/beta2 (Homo sapiens, UniProt P17787+P43681); test: Agonist activity at human alpha4beta2 nAChR expressed in SH-EP1 cells assessed as 86Rb+ ion efflux after 9.5 mins by flip-plate technique
Sequence (P17787 whole entry): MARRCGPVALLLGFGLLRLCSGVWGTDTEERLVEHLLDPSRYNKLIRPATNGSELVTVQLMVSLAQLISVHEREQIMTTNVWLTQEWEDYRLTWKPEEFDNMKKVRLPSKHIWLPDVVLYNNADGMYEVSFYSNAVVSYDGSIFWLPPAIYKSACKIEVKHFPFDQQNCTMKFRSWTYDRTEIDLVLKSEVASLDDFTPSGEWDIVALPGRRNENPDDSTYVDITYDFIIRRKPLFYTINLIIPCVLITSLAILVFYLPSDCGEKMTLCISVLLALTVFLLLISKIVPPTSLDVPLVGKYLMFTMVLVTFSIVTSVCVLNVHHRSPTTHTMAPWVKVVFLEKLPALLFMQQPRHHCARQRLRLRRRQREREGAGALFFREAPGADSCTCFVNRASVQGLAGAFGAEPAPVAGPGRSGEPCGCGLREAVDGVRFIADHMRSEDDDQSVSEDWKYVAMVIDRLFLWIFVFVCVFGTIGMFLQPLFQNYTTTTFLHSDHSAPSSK
Sequence (P43681 whole entry): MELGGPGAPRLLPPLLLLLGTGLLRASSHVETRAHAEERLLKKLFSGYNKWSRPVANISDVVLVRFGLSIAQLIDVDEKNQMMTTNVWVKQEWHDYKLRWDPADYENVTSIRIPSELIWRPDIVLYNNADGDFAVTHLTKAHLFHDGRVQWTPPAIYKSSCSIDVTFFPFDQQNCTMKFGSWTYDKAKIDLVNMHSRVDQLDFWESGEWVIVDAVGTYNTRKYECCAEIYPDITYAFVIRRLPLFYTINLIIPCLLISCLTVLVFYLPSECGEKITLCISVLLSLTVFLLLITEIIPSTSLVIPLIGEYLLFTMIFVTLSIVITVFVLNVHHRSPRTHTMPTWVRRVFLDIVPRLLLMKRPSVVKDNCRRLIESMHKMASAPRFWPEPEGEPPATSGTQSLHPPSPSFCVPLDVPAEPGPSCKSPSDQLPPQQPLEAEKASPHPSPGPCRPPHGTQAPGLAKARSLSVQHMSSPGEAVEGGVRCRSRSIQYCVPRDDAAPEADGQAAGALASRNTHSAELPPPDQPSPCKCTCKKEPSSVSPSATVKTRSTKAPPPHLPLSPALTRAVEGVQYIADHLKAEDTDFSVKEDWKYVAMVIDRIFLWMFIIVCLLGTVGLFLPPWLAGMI
result-type: EC50 (nM)

item-smiles | system | result-type | assay-result
CN(C)C(=O)OCC[C@H]1C[C@@H]1c1cncc(OC[C@@H]2CCN2)c1 | Neuronal acetylcholine receptor; alpha4/beta2 (Homo sapiens, UniProt P17787+P43681) | EC50 | 18.2
COCC[C@H]1C[C@@H]1c1cncc(OC[C@@H]2CCN2)c1 | Neuronal acetylcholine receptor; alpha4/beta2 (Homo sapiens, UniProt P17787+P43681) | EC50 | 17.5
O=C(NC1CC1)OCC[C@H]1C[C@@H]1c1cncc(OC[C@@H]2CCN2)c1 | Neuronal acetylcholine receptor; alpha4/beta2 (Homo sapiens, UniProt P17787+P43681) | EC50 | 23.3
COCC[C@@H]1C[C@H]1c1cncc(OC[C@@H]2CCN2)c1 | Neuronal acetylcholine receptor; alpha4/beta2 (Homo sapiens, UniProt P17787+P43681) | EC50 | 43.1
OCC[C@H]1C[C@@H]1c1cncc(OC[C@@H]2CCN2)c1 | Neuronal acetylcholine receptor; alpha4/beta2 (Homo sapiens, UniProt P17787+P43681) | EC50 | 10.2
OCCCCC#Cc1cncc(OC[C@@H]2CCN2)c1 | Neuronal acetylcholine receptor; alpha4/beta2 (Homo sapiens, UniProt P17787+P43681) | EC50 | 5.8
O=C(OCC[C@H]1C[C@@H]1c1cncc(OC[C@@H]2CCN2)c1)N1CCCC1 | Neuronal acetylcholine receptor; alpha4/beta2 (Homo sapiens, UniProt P17787+P43681) | EC50 | 44.4
CNC(=O)OCC[C@H]1C[C@@H]1c1cncc(OC[C@@H]2CCN2)c1 | Neuronal acetylcholine receptor; alpha4/beta2 (Homo sapiens, UniProt P17787+P43681) | EC50 | 15.7
O=C(Nc1ccccc1)OCC[C@H]1C[C@@H]1c1cncc(OC[C@@H]2CCN2)c1 | Neuronal acetylcholine receptor; alpha4/beta2 (Homo sapiens, UniProt P17787+P43681) | EC50 | 48.9
OCC[C@@H]1C[C@H]1c1cncc(OC[C@@H]2CCN2)c1 | Neuronal acetylcholine receptor; alpha4/beta2 (Homo sapiens, UniProt P17787+P43681) | EC50 | 34.6

Values were extracted from ChEMBL document CHEMBL2021777.
